This collection of values is drawn from ChEMBL document CHEMBL1141452.

- assay-system: UniProt P18901
- Sequence (P18901 whole entry): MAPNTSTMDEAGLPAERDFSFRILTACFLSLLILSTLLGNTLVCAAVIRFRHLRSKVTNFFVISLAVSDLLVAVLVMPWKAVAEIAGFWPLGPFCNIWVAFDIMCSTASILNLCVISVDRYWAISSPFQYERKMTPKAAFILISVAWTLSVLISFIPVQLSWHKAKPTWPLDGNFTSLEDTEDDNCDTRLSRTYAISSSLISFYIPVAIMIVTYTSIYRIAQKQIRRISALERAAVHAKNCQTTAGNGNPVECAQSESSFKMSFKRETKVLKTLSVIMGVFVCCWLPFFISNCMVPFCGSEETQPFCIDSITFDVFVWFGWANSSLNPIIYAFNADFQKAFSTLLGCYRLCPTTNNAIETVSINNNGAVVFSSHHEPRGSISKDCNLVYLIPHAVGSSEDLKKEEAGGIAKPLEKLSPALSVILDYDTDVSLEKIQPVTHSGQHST
- run-description: Displacement of [3H]SCH-23390 from rat dopamine D1 receptor
Please use true (1) for IC50 under 2 µM and false (0) for everything else, ties included.

molecule	assay-system	label-value
COc1cccc2c1-c1c3c(cc4c1C(C2)N(C)CC4)OCO3 (centres undefined)	UniProt P18901	false (0)
c1ccc2c(c1)C[C@H]1NCCc3cc4c(c-2c31)OCO4 [ANONAINE]	UniProt P18901	false (0)
COc1ccc2c(c1O)Oc1c(O)ccc3c1[C@H](C2)N(C)CC3 [CLAVICULINE]	UniProt P18901	true (1)
COc1cc2c(cc1O)C[C@H]1c3c(ccc(O)c3O2)CCN1C [BREOGANINE]	UniProt P18901	true (1)
COc1c(O)c2c3c(c1OC)CCN[C@@H]3Cc1ccccc1-2 [ISOPILINE]	UniProt P18901	false (0)
COc1cc2c3c(c1OC)-c1c(ccc(O)c1O)CC3N(C)CC2 (centres undefined) [SUAVEOLINE]	UniProt P18901	false (0)
Oc1ccc2c(c1)C[C@H]1NCCc3cc4c(c-2c31)OCO4 [ANOLOBINE]	UniProt P18901	false (0)
COc1cc2c(cc1O)C[C@@H]1NCCc3cc(O)c(OC)c-2c31 [NORBOLDINE]	UniProt P18901	false (0)
COc1c2c3c(c4c1OCO4)-c1ccccc1C[C@H]3NCC2 [NORSTEPHALAGINE]	UniProt P18901	false (0)
